The measurements presented in this section are drawn from ChEMBL document CHEMBL3621143.

- SYSTEM TESTED: UniProtKB P10275
- Sequence (P10275 whole entry): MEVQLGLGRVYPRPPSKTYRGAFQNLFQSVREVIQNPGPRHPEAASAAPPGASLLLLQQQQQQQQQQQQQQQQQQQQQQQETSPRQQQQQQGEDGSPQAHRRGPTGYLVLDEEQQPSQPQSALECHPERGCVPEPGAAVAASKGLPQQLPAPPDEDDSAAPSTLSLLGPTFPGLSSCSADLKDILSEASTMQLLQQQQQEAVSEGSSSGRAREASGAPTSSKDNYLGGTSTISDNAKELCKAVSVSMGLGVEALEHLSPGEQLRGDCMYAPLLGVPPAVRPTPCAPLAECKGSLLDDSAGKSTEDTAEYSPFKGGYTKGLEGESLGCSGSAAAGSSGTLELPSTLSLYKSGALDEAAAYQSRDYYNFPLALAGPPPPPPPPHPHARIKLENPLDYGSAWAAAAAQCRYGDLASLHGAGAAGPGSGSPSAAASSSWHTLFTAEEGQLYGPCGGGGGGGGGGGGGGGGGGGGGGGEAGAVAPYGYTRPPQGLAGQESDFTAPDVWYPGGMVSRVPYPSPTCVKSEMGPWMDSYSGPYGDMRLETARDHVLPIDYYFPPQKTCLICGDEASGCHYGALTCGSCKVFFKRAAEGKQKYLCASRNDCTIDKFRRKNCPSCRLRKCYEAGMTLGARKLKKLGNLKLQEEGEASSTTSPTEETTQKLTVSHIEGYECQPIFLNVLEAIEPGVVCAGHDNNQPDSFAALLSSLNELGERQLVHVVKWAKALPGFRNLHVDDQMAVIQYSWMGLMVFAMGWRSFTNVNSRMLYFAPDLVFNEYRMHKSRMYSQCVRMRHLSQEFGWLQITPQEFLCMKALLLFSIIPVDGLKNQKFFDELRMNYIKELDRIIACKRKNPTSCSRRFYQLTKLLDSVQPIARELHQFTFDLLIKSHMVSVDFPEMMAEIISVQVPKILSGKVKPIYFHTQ
- ASSAY NAME: Displacement of [3H]-DHT from androgen receptor in human MDA-MB-453 cells after 90 mins by TopCount analysis
PARAMETER: pKi
Scale note: pKi = -log10(concentration in M).

Answered examples (2):
- CC12C[C@H](O)[C@](C)(O1)[C@@H]1C(=O)N(c3ccc(C#N)c(I)c3)C(=O)[C@@H]12 (single isomer, unassigned): 8.10
- C[C@]12O[C@@](C)(C[C@H]1NS(C)(=O)=O)[C@H]1C(=O)N(c3ccc(C#N)c(C(F)(F)F)c3)C(=O)[C@H]12: 7.92

// switching to the query compound
Query: pKi; subject: "C[C@]12O[C@@](C)(C[C@H]1NS(=O)(=O)c1ccccc1)[C@H]1C(=O)N(c3ccc(C#N)c(C(F)(F)F)c3)C(=O)[C@H]12" 8.00
